system.tested: chimeric 0401-IE class II molecule on cells of transgenic mice (human/murine chimera)
experimental.protocol: cell-based or functional assay
reported.metric: Maximum inhibition(%) of IL-2 secretion
Entry rule: numbers only, all in %.

Known results for binders:
- binder: "MS-GPC-8-27-7 Fab (Fab, V domains shown, Fab: VH-CH1 with FLAG tag and STREP tag II, VL-CL; VH residue 1 is Q in Fab) VH: QVQLKESGPALVKPTQTLTLTCTFSGFSLSTSGVGVGWIRQPPGKALEWLALIDWDDDKYYSTSLKTRLTISKDTSKNQVVLTMTNMDPVDTATYYCARSPRYRGAFDYWGQGTLVTVSS VL: DIVLTQPPSVSGAPGQRVTISCSGSESNIGNNYVGWYQQLPGTAPKLLIYDNNQRPSGVPDRFSGSKSGTSASLAITGLQSEDEADYYCQSYDMNVHVFGGGTKLTVLG"
  reading.unit: "%"
  obs.value: 100
- binder: "MS-GPC-8-27-41 IgG4 (antibody, V domains shown, also called 1D09C3; IgG form of MS-GPC-8-27-41) VH: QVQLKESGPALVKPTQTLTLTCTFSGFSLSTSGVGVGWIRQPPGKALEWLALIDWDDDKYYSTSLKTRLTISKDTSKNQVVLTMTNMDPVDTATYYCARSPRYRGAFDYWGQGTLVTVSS VL: DIVLTQPPSVSGAPGQRVTISCSGSESNIGNNYVQWYQQLPGTAPKLLIYDNNQRPSGVPDRFSGSKSGTSASLAITGLQSEDEADYYCQSYDMNVHVFGGGTKLTVLG"
  reading.unit: "%"
  obs.value: 100

Q) Would you mind telling me what Maximum inhibition(%) of IL-2 secretion value was observed for MS-GPC-8-6 IgG (antibody, V domains shown) VH: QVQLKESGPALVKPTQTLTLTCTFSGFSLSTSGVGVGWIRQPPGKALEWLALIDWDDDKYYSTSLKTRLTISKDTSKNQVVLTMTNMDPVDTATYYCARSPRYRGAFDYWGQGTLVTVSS VL: DIVLTQPPSVSGAPGQRVTISCSGSSSNIGSNYVSWYQQLPGTAPKLLIYDNNQRPSGVPDRFSGSKSGTSASLAITGLQSEDEADYYCQSYDYDHYVFGGGTKLTVLG ?
A) 100

Origin of measurements: patent US7521047
